System: MCF7
assayName: Cytotoxicity against human MCF7 cells assessed as inhibition of cell growth incubated for 48 hrs by MTT assay
Assay type: functional, cell-based
measurementConditions: MCF7, 48 h
pIC50: −log10 of the molar value.
measureName: pIC50

Recorded pIC50, per entry:
1. O=C(CN1C(=O)S/C(=C\c2coc3ccccc3c2=O)C1=O)c1ccccc1 : < 5.00
2. N#Cc1ccc(C(=O)CN2C(=O)S/C(=C\c3coc4ccccc4c3=O)C2=O)cc1 : < 5.00
3. COc1ccc(C(=O)CN2C(=O)S/C(=C\c3coc4cc(Br)ccc4c3=O)C2=O)cc1 : 5.05
4. O=C(CN1C(=O)S/C(=C\c2coc3cc(Br)ccc3c2=O)C1=O)c1ccc(Br)cc1 : < 5.00
5. Cc1ccc2occ(/C=C3\SC(=O)N(CC(=O)c4ccc(Br)cc4)C3=O)c(=O)c2c1 : < 5.00

Which measured pIC50 value corresponds to Cc1ccc2occ(/C=C3\SC(=O)N(CC(=O)c4ccc(F)cc4)C3=O)c(=O)c2c1 ?
< 5.00

Query (molecule): O=C(CN1C(=O)S/C(=C\c2coc3ccccc3c2=O)C1=O)c1ccc(Cl)cc1 ; field requested: pIC50
5.06

Fill blank: measured pIC50 of the molecule O=C(CN1C(=O)S/C(=C\c2coc3ccccc3c2=O)C1=O)c1ccc(Cl)c(Cl)c1 is ____.
5.04

pIC50 lookup needed for Cc1ccc(C(=O)CN2C(=O)S/C(=C\c3coc4cc(Br)ccc4c3=O)C2=O)cc1 , thanks.
5.00

Tell me the measured pIC50 of O=C(CN1C(=O)S/C(=C\c2coc3cc(Br)ccc3c2=O)C1=O)c1ccccc1 , please.
< 5.00
